# ASSAY_TARGET: T1, EsCas13d, nuclease-dead (Eubacterium siraeum, UniProt B0MS50, R295A;H300A;R849A;H854A)
# T1 sequence: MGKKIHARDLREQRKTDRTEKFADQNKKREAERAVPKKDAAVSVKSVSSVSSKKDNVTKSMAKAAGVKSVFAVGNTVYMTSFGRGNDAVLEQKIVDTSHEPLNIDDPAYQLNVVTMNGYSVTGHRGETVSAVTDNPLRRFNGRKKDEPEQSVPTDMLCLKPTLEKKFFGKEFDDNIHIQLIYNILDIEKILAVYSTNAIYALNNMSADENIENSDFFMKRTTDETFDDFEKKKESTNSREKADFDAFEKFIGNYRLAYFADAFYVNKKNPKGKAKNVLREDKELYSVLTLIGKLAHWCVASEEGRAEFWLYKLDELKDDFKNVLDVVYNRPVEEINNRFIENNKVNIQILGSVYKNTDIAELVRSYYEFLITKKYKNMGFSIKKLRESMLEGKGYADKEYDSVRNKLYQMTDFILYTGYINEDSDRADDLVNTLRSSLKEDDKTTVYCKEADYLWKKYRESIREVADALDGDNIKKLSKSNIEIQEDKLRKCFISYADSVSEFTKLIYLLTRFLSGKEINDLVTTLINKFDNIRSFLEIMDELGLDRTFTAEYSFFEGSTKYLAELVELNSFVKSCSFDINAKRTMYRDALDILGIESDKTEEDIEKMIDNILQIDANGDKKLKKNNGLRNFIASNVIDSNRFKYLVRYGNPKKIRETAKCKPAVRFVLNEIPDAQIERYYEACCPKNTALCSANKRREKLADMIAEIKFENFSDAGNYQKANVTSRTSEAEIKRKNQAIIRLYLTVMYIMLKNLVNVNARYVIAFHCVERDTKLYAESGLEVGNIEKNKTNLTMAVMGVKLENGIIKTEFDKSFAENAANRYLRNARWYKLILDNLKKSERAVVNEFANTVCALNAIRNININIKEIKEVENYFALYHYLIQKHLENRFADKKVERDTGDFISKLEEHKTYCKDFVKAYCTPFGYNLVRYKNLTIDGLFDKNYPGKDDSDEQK
# ASSAY_DETAILS: crRNA (strand 1, pre-loaded); Mg2+; 40 mM Tris-HCl pH 7.5, 150 mM NaCl, 6 mM MgCl2, 1 mM DTT, 0.1% Tween-20, 0.2 mg/ml BSA; 25 C; 10 min per concentration, then washed
# TEST_CONTEXT: tags: His6-TwinStrep-SUMO cleaved; N-terminal SNAP kept (SNAP-Surface 488); label: 3' end held by stalled T7 RNA polymerase
Simple rule here: Kd less than 20 nM is yes (1), otherwise no (0).

A selection of reference data follows.
target 1 C7A,U11A (mixed) RNA 1: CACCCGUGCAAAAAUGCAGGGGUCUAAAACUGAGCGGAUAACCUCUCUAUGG RNA 2: GGGAAUGGAUCCACAUCUACGAAUUCGUACCAUAGAGAGGAUAUACGCUCACCGAGAUCGGAAGAGCACACGU; yes (1)
target 1 insG 3' of 18,insG 3' of 16 (mixed) RNA 1: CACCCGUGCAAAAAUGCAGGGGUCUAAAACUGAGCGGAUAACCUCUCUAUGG RNA 2: GGGAAUGGAUCCACAUCUACGAAUUCGUACCAUAGGAGGAGGUUAUCCGCUCACCGAGAUCGGAAGAGCACACGU; no (0)
target 1 MT 5'PFS GGG 3'PFS AGG (mixed) RNA 1: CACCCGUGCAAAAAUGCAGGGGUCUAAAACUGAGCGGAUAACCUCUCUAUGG RNA 2: GGGAAUGGAUCCACAUCUACGAAUUCGGGCCAUAGAGAGGUUAUCCGCUCAAGGAGAUCGGAAGAGCACACGU; no (0)
target 2 MT 5'PFS GUG 3'PFS UAA (mixed) RNA 1: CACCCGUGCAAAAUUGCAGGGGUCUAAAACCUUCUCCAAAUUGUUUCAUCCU RNA 2: GGGAAUGGAUCCACAUCUACGAAUUCGUGAGGAUGAAACAAUUUGGAGAAGUAAAGAUCGGAAGAGCACACGU; yes (1)
target 2 MT 5'PFS GAA 3'PFS AAG (mixed) RNA 1: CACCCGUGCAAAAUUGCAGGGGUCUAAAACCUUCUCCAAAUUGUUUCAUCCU RNA 2: GGGAAUGGAUCCACAUCUACGAAUUCGAAAGGAUGAAACAAUUUGGAGAAGAAGAGAUCGGAAGAGCACACGU; yes (1)

Please look at the following binder next.
Asked: Just wondering, is Kd of target 1 C4U,U10A (mixed) RNA 1: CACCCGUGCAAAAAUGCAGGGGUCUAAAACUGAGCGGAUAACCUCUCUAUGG RNA 2: GGGAAUGGAUCCACAUCUACGAAUUCGUACCAUAGAGAGGUAAUCCGUUCACCGAGAUCGGAAGAGCACACGU below 20 nM?
Given back: no (0)
